tested on: transient receptor potential cation channel C4 beta (TRPC4), mouse; assay: activators of mouse TRPC4 channel, confirmation, cell-based, second round, Fluo4, HEK293 TRPC4beta/mu-opioid, 1 µM (AID 2461); conditions: Fluo4 calcium fluorescence, at 1 µM
Active and inactive are the calls of the source.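 Rule for the calls: active = primary screen active and over 50% activation in each of two duplicate runs; inactive = the rest.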
Could you please pick one outcome from this set? y for active, n for inactive

[in] Which outcome was entered for the molecule COc1ccccc1C(=O)NNC(=S)NC(=O)c1sc2ccccc2c1Cl in this test?
[out] n

[in] What did the test return for CN(C)C(CNC(=S)Nc1ccc(F)cc1)c1cccnc1 (stereo unspecified) ?
[out] y

[in] How did this test come out for Cc1ccc(C)c(OCCCCn2ccnc2)c1 ?
[out] n

[in] Hi team, can someone confirm the assay call for COc1ccc(CCN(C)CCN2C(=O)c3ccccc3C2=O)cc1OC ?
[out] y

[in] Please share the test call associated with Cc1cc(Cl)cc(C)c1OCCCCn1ccnc1 .
[out] n

[in] Short answer needed: outcome of this test for Cc1cc(OCCCCn2ccnc2)cc(C)c1Cl ?
[out] n

[in] What did the test return for CCOC(=O)c1c(NC(=O)COC(=O)Cc2c[nH]c3ccccc23)sc(C(=O)N(C)C)c1C ?
[out] n

[in] Just curious, what result did FC(F)(F)c1cnc(N2CCCN(C(=S)Nc3ccccc3)CC2)c(Cl)c1 get here?
[out] y

[in] Field: outcome | Entry: COc1ccc(-c2nn(-c3ccccc3)cc2CNCc2cccnc2)c(F)c1
[out] n

[in] Look up the recorded call for Cc1cccc(C)c1OCC(O)CN (stereo unspecified) in this test.
[out] n

[in] What call does the record list for O=C(NCc1cccnc1)C1CCCN(Cc2cnn(-c3ccccc3)c2-n2cccc2)C1 (stereo unspecified) ?
[out] n
